This document collects pKi values reported for UniProtKB P14842.
Sequence (P14842 whole entry): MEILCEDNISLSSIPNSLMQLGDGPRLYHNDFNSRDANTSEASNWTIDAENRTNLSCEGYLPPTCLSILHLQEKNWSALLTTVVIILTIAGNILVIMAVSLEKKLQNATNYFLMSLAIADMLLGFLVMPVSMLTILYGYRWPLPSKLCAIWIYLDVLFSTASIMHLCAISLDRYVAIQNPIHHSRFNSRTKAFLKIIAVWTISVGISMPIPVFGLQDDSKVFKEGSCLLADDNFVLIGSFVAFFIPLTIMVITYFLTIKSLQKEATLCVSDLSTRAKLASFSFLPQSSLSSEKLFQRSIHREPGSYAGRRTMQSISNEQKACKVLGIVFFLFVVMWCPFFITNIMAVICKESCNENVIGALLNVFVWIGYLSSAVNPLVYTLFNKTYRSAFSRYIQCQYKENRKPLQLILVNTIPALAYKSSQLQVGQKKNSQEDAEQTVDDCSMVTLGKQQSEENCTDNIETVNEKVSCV
pKi: −log10 of the molar value.

>  <compound>
CCS(=O)(=O)c1cc(N2CCN(CCO)CC2)cc(-c2ccc(F)cc2)c1OC

>  <experimental system>
UniProtKB P14842

>  <operator>
=

>  <pKi>
8.24

$$$$
>  <compound>
CCN1CCN(c2cc(-c3ccccc3)c(OC)c(S(=O)(=O)N(C)C)c2)CC1

>  <experimental system>
UniProtKB P14842

>  <operator>
=

>  <pKi>
7.52

$$$$
>  <compound>
CCCS(=O)(=O)Nc1cc(N2CCN(CC)CC2)cc(-c2ccccc2C=O)c1Cl

>  <experimental system>
UniProtKB P14842

>  <operator>
=

>  <pKi>
7.88

$$$$
>  <compound>
CCN1CCN(c2cc(-c3ccccc3C)c(Cl)c(C(F)(F)CC)c2)CC1

>  <experimental system>
UniProtKB P14842

>  <operator>
=

>  <pKi>
6.95

$$$$
>  <compound>
CCS(=O)(=O)Nc1cc(N2CCN(C)CC2)cc(-c2ccccc2C)c1Cl

>  <experimental system>
UniProtKB P14842

>  <operator>
=

>  <pKi>
8.25

$$$$
>  <compound>
CCC(F)c1cc(N2CCN(CC)CC2)cc(-c2ccccc2C)c1Cl (stereo not drawn) [Example 131]

>  <experimental system>
UniProtKB P14842

>  <operator>
=

>  <pKi>
7.68

$$$$
>  <compound>
CCCc1cc(N2CCN(CC)CC2)cc(-c2ccc(C(F)(F)F)cc2)c1OC

>  <experimental system>
UniProtKB P14842

>  <operator>
<

>  <pKi>
6.00

$$$$
>  <compound>
CCN1CCN(c2cc(-c3ccccc3C)c(Cl)c(C(C)F)c2)CC1 (stereo not drawn)

>  <experimental system>
UniProtKB P14842

>  <operator>
=

>  <pKi>
7.67

$$$$
>  <compound>
CCC(F)c1cc(N2CCN(C)CC2)cc(-c2ccccc2C#N)c1Cl (stereo not drawn)

>  <experimental system>
UniProtKB P14842

>  <operator>
=

>  <pKi>
8.21

$$$$

Source of measurements: patent US6281214A
